Property: pIC50; scope: individual compounds
- tgt: Human immunodeficiency virus type 1 reverse transcriptase (Human immunodeficiency virus 1, UniProt Q72547)
pIC50: −log10 of the molar value.
readout-name: pIC50

>>> print(df.to_string())
                         chemical_structure  readout_name  numeric_readout
0   CCc1cc(NCc2nc3c(Cl)ccc(Cl)c3o2)c(O)nc1C         pIC50             5.57
1  CC(C)Nc1cccnc1N1CCN(C(=O)c2cc3cc(O)ccc3[nH]2)CC1         pIC50             5.89
2  CC(C)Nc1cccnc1N1CCN(C(=O)c2cc3cc(N)ccc3[nH]2)CC1         pIC50             6.00
3  Cc1ccc2[nH]c(C(=O)N3CCN(c4ncccc4NC(C)C)CC3)cc2c1         pIC50             4.47
